Biological target: serotonin 2 receptor (Rattus norvegicus, UniProt P14842)
Sequence (P14842 whole entry): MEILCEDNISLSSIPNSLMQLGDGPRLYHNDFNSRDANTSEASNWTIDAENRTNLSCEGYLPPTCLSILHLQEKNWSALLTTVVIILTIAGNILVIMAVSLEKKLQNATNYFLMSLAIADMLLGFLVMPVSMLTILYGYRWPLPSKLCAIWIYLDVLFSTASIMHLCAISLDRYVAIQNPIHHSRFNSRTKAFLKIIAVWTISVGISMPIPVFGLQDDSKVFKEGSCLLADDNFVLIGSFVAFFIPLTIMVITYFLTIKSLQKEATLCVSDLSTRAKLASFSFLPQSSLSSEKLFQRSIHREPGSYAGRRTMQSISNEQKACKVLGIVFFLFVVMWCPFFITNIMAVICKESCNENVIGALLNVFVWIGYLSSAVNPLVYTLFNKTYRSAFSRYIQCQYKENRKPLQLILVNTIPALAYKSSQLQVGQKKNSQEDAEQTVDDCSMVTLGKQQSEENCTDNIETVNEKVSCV
Assay: Binding test on [3H] ketanserin (serotonin 2 receptor)
Details: [3H] ketanserin 0.3 nM, receptor fraction of rat cerebral cortex; read-out: 5HT2
pKi: −log10 of the molar value.
// NOT MET strictly below 8 in pKi; MET otherwise

                                    compound  discrete_label
 0  O=C(Cc1ccc2ccn(C3CCN(CCc4ccc(F)cc4)CC3)c2c1)NC1CC1             MET
 1  COc1ccc(CCN2CCC(N3CCc4ccc(F)cc43)CC2)cc1         NOT MET
 2  CNC(=O)Cc1ccc2ccn(C3CCN(CCc4ccccc4F)CC3)c2c1         NOT MET
 3   Fc1ccc(CCN2CCC(n3ccc4ccc(F)cc43)CC2)cc1         NOT MET
 4  CCN1CCN([C@@H]2c3cc(OC)ccc3CC[C@H]2Oc2ccc(C(F)(F)F)cc2)CC1 (relative stereo)         NOT MET
 5  O=C1CCCC(=O)N1Cc1ccc2c(c1)N(C1CCN(CCc3ccc(F)cc3)CC1)CC2             MET
 6  CC(=O)NCc1ccc2ccn(C3CCN(CCCc4ccc(F)cc4)CC3)c2c1         NOT MET
 7  NS(=O)(=O)c1ccc(CCN2CCC(N3CCc4ccccc43)CC2)cc1             MET
 8  NC(=O)Cc1ccc2c(c1)N(C1CCN(CCc3ccc(F)cc3)CC1)CC2             MET
 9  O=C(NCc1ccc2ccn(C3CCN(CCc4ccc(F)cc4)CC3)c2c1)n1ccnc1             MET
10  O=C(CCl)NCc1ccc2ccn(C3CCN(CCc4ccc(F)cc4)CC3)c2c1             MET
11  O=C(c1ccc2c(c1)N(C1CCN(CCc3ccc(F)cc3)CC1)CC2)n1cccc1         NOT MET
12        c1ccc2c(c1)CCN2C1CCN(CCc2ccsc2)CC1         NOT MET
13  CC(=O)NCc1ccc2c(C#N)cn(C3CCN(CCc4ccc(F)cc4)CC3)c2c1         NOT MET
